Target: triton-extracted alpha-synuclein from PD Tissue (Homo sapiens)
Construct: tissue Analytic Biological Services Inc; host or cells: human PD temporal cortex grey matter, Triton X-100 insoluble pellet
Test: Alpha-synuclein tissue homogenate binding assay (Assay 1), displacement of [^3H]-1000
Conditions: insoluble fraction of PD brain homogenate, [^3H]-1000 3.0 nM, Kd 0.90 nM; read-out: α-synuclein Tissue Ki (Assay 1)
pKi: −log10 of the molar value.
MEASUREMENT LABEL: pKi

• FCCOC[C@H]1CN(c2ncc(C#Cc3cnc(-c4cnco4)nc3)cn2)CCN1c1ncccn1 [Example 93] = 8.51
• COC[C@H]1CN(c2ncc(C#Cc3cnc(-n4cnnc4)nc3)cn2)CCN1c1ccc(F)cn1 [Example 89] = 8.59
• Cn1cc(-c2ccc(C#Cc3cnc(N4CCN(c5ncncn5)[C@@H](COCCF)C4)nc3)cn2)cn1 [Example 50] = 9.35
• COC[C@H]1CN(c2ncc(C#Cc3cnc(-c4cnn(CCCF)c4)nc3)cn2)CCN1c1ncncn1 [Example 91] = 8.61
• COC[C@H]1CN(c2ncc(C#Cc3cnc(-c4cnn(CCF)c4)nc3)cn2)CCN1c1ccncn1 [Example 54] = 9.04
• COC[C@H]1CN(c2cc(Cl)ncn2)CCN1c1ncc(/C=C/c2ccc(-n3ccnc3)nc2)cn1 [Example 14] = 8.89

P: COC[C@H]1CN(c2ncc(C#Cc3ccc(-c4cnn(CCF)c4)nc3)cn2)CCN1c1ncc(F)cn1 [Example 90]
Q: COC[C@H]1CN(c2ncc(C#Cc3ccc(-c4cnn(CCF)c4)nc3)cn2)CCN1c1ncncn1 [Example 47]
Challenge: Hi, I'm comparing two records. Which one has the lower pKi, P or Q ? Your answer should be the label attached to the chosen record.
Response given: P
(P: 8.74, Q: 9.16)
